Recorded values, source the supplement of paper PMC10567573.

B1: MMP1 (parent)
chain: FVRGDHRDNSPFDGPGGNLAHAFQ

# Variants of: B1
# assay-notes: protein stability index of a GFP-peptide fusion (GPS, HEK-293T) (PSI 1-6); higher = more stable;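 further: lentivirally expressed fusions sorted by FACS into six bins by GFP to DsRed ratio, PSI derived from sequencing read proportions per bin multiplied by bin number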
# conditions: c terminus: a fixed tail appended
protein stability index values, listed per item
Respond using a number only.

Please review the entries below; each comes with its answer.
biopolymer-sequence: FVRGDHRDNSPFDGPGGNLAHAFR [Q24R]
experimental-value: 1.63
//
biopolymer-sequence: FVRGDHRDNSPFDGPGGNTAHAFQ [L19T]
experimental-value: 2.08
//
biopolymer-sequence: FVRGDHRGNSPFDGPGGNLAHAFQ [D8G]
experimental-value: 1.84
//
biopolymer-sequence: FVRGDHRDNSPFDGSGGNLAHAFQ [P15S]
experimental-value: 4.22
//
biopolymer-sequence: FVRGDHRDNSPFDGPGGNVAHAFQ [L19V]
experimental-value: 3.29
//
biopolymer-sequence: FTRGDHRDNSPFDGPGGNLAHAFQ [V2T]
experimental-value: 3.07
//
biopolymer-sequence: FVRGDHRDESPFDGPGGNLAHAFQ [N9E]
experimental-value: 2.15
//
biopolymer-sequence: FVRGDHRDNSPFDGPGGNLAHAFD [Q24D]
experimental-value: 2.75

Short answer for FVRGDHRDNTPFDGPGGNLAHAFQ [S10T] : protein stability index was 2.13

Short answer for FVRGDHRDNSPFDGPGGNLAGAFQ [H21G] : protein stability index was 1.81

Short answer for FVRGDHRDNSPFDGPGGNLAHAFT [Q24T] : protein stability index was 3.41

Short answer for FVRGDHRDNSPFDGPGGNPAHAFQ [L19P] : protein stability index was 1.49
